Test: Cytotoxicity against CEM/s cells
Format: functional, cell-based
Details: Homo sapiens
Reported log10(IC50) by item:
On a log10 scale: recorded IC50, unit µM.

# compound, numeric readout
rows = [
    ("CC(C)=CCC/C(C)=C/CC/C(C)=C/CC/C(C)=C/C[n+]1cn(C)c2nc[nH]/c(=N\\OC(C)(C)C)c21", 0.59),
    ("CC(C)=CCC/C(C)=C\\CC/C(C)=C/C[n+]1cn(C)c2nc[nH]/c(=N\\OCc3ccccc3)c21", 1.00),
    ("CC(=O)O[C@H]1C(=O)[C@@]2(C)[C@H]([C@H](OC(=O)c3ccccc3)[C@]3(O)C[C@H](OC(=O)[C@H](O)[C@@H](NC(=O)c4ccccc4)c4ccccc4)C(C)=C1C3(C)C)[C@]1(OC(C)=O)CO[C@@H]1C[C@@H]2O", -2.15),
    ("C/C(=C\\C[n+]1cn(C)c2ncnc(N)c21)CCCC(C)CCCC(C)CCCC(C)C (stereo not drawn)", 0.76),
]

Reported log10(IC50) for CO/N=c1\[nH]cnc2ncn(C/C=C(\C)CC/C=C(\C)CC/C=C(\C)CCC=C(C)C)c12 : what is it? 0.76

// returns reported log10(IC50) for input CO/N=c1\[nH]cnc2c1[n+](C/C=C(\C)CC/C=C(\C)CC/C=C(\C)CCC=C(C)C)cn2Cc1ccccc1 0.35

Query (compound): COc1cccc2c1C(=O)c1c(O)c3c(c(O)c1C2=O)C[C@@](O)(C(=O)CO)C[C@@H]3O[C@H]1C[C@H](N)[C@H](O)[C@H](C)O1 ; field requested: log10(IC50) -0.74

Please give the measured log10(IC50) for this compound: CC(C)=CCC/C(C)=C/CC/C(C)=C/CC/C(C)=C/C[n+]1cn(C)c2nc[nH]/c(=N\OCc3ccccc3)c21 1.15
